Data provenance is patent US10278942B2.

For each of the compounds below, state its pIC50.
- Experimental target: HIF-2α HIS TAG-PASB Domain (Homo sapiens)
- Construct: 100 nM HIF-2α HIS TAG-PASB Domain
- Experiment notes: HIF-2α Scintillation Proximity Assay (SPA)
- Format: binding
- Measurement conditions: read-out: Scintillation Proximity Assay IC50
pIC50: −log10 of the molar value.

Some entries whose results are on file:
Name the reported pIC50 value associated with the compound O=S(=O)(c1ccc(C2CC2)c2c1C(O)C(F)(F)C2)C(F)(F)F (centres unmarked)
6.00 to 6.60

Name the reported pIC50 value associated with the compound "O=S(=O)(c1ccc(OC2CNC2)c2c1[C@H](O)C(F)(F)C2)C(F)(F)F"
< 6.00

Name the reported pIC50 value associated with the compound "COC[C@H](C)Oc1ccc(S(=O)(=O)C(F)(F)F)c2c1CC(F)(F)[C@H]2O"
6.60 to 7.30

Name the reported pIC50 value associated with the compound "Cc1c(Oc2cc(F)cc(C#N)c2)ccc(S(=O)(=O)C(F)(F)F)c1/C=C/C(=O)NCc1ccccc1"
< 6.00

Name the reported pIC50 value associated with the compound "N#Cc1cncc(Oc2ccc(S(=O)(=O)C(F)F)c3c2CC[C@H]3O)c1"
< 6.00

# per-item lookup of pIC50; items listed below
1. CC1(C)CCC(=O)[C@H](c2ccc(S(=O)(=O)C(F)(F)F)c3c2CC(F)(F)[C@H]3O)C1
2. N#Cc1cc(F)cc(Oc2ccc(S(=O)(=O)CF)c3c2CC[C@H]3O)c1
3. COC(=O)/C=C/c1c(S(=O)(=O)C(F)(F)F)ccc(Oc2cc(F)cc(C#N)c2)c1C

1. 6.00 to 6.60
2. > 7.30
3. 6.60 to 7.30

* * *

- Experimental target: HIF-2α HIS TAG-PASB Domain (Homo sapiens, UniProt Q99814)
- Construct: 100 nM HIF-2α HIS TAG-PASB Domain
- Sequence (Q99814 240-350 limits assumed): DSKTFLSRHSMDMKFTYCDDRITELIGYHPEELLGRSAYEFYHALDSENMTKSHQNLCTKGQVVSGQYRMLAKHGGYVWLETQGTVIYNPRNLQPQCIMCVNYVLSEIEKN
- Experiment notes: HIF-2α Scintillation Proximity Assay (SPA)
- Assay type: binding
- Measurement conditions: read-out: Scintillation Proximity Assay IC50
- Experimental: The total assay volume was about 100 μL in the following configuration: 2 μL compound in 100% DMSO, 88 μL buffer with protein and probe and 10 μL of SPA beads. […] The percent inhibition was determined and IC50 values were calculated using the Dotmatics system based on the following equation: % inhibition=[(high control−sample)/(high control−low control)]×100.
pIC50: −log10 of the molar value.
Value type: pIC50

Name the reported pIC50 value associated with the compound "N#Cc1cccc(Oc2ccc(S(=O)(=O)C(F)F)c(CO)c2Br)c1"
6.00 to 6.60

Name the reported pIC50 value associated with the compound O=S(=O)(c1ccc(OC2CCNCC2)c2c1C(O)CC2)C(F)(F)F (centres unmarked)
< 6.00

Name the reported pIC50 value associated with the compound "CS(=O)(=O)c1ccc(O[C@H]2C[C@H](C#N)C2)c2c1[C@H](O)C(F)(F)[C@@H]2F"
> 7.30

Name the reported pIC50 value associated with the compound "O=S(=O)(CF)c1ccc(O[C@H]2C[C@H](F)C2)c2c1[C@H](O)C(F)(F)[C@@H]2F"
> 7.30

# per-item lookup of pIC50; items listed below
1. O[C@H]1c2c(C(F)(F)F)ccc(OCC(F)F)c2[C@@H](F)C1(F)F
2. CS(=O)(=NC#N)c1ccc(Oc2cc(F)cc(F)c2)c2c1C(O)CC2 (centres unmarked)

1: > 7.30; 2: < 6.00

# per-item lookup of pIC50; items listed below
1. NCCOc1ccc(S(=O)(=O)C(F)(F)F)c2c1CC(F)(F)C2O (centres unmarked)
2. O=S(=O)(c1ccc(OC[C@H]2CC2(F)F)c2c1[C@H](O)C(F)(F)C2)C(F)(F)F

< 6.00
> 7.30

# per-item lookup of pIC50; items listed below
1. Nc1ncccc1-c1ccc(S(=O)(=O)C(F)(F)F)c2c1CC(F)(F)[C@H]2O
2. N#Cc1c(Oc2cc(F)cc(F)c2)ccc2c1C(O)C(F)(F)S2(=O)=O (centres unmarked)
3. N#CN=S(=O)(c1ccc(Oc2cc(F)cc(C#N)c2)c2c1[C@H](O)[C@H](F)C2)C(F)F (some centres unmarked)
4. O=S(=O)(c1ccc(Oc2cc(Cl)c[n+]([O-])c2)c2c1[C@H](O)C(F)(F)C2)C(F)(F)F
5. CS(=O)(=O)c1ccc(OC2CC2)c2c1[C@H](O)C(F)(F)[C@@H]2F

["< 6.00", "> 7.30", "< 6.00", "6.60 to 7.30", "< 6.00"]

# per-item lookup of pIC50; items listed below
1. OC1c2c(I)cc(I)c(OCC(F)F)c2CC1F (centres unmarked)
2. N#Cc1cc(Oc2ccc3c(c2C(F)F)[C@@H](O)C(F)(F)S3(=O)=O)ccc1F
3. O=S(=O)(c1ccc(Oc2cccn3ccnc23)c2c1C(O)C(F)(F)C2)C(F)(F)F (centres unmarked)
4. Cc1cc(S(=O)(=O)C(F)F)ccc1Oc1cc(F)cc(Cl)c1

< 6.00
6.60 to 7.30
< 6.00
6.00 to 6.60
